# System: calf thymus double stranded DNA and ribosomal RNA
# assay.method.text: Determination of DNA/RNA fluorescence ratios
# Assay type: binding
# condition.description: excitation value, first number of ex/em cell
assay.metric: ex/em: excitation (nm)
Give the value, in units of nm, as a plain number.

The following molecules have reported results that may help.
Input line: What ex/em: excitation value was documented for this molecule, COc1cccc(OC)c1-c1ccc2c(c1)sc(C=C1C=CN(Cc3ccc(CN4CCOCC4)cc3)c3ccccc31)[n+]2C [Compound 45] ?
Output line: 511

Input line: What ex/em: excitation value was documented for this molecule, Cc1cccc(C)c1-c1ccc2c(c1)sc(C=C1C=C(N(C)CCCN(C)C)N(Cc3ccccc3)c3ccccc31)[n+]2C [Compound 70] ?
Output line: 501

Input line: What ex/em: excitation value was documented for this molecule, COc1cccc(OC)c1-c1ccc2c(c1)sc(C=C1C=C(N3CCN(C)CC3)N(Cc3ccccc3)c3ccccc31)[n+]2C [Compound 20] ?
Output line: 510

Input line: What ex/em: excitation value was documented for this molecule, CCCCC1=CC(=Cc2sc3cc(-c4c(OC)cccc4OC)ccc3[n+]2C)c2ccccc2N1Cc1ccccc1 [Compound 26] ?
Output line: 505

Input line: What ex/em: excitation value was documented for this molecule, COc1cccc(OC)c1-c1ccc2c(c1)sc(C=C1C=C(N(C)CCN(C)C)N(Cc3ccccc3)c3ccccc31)[n+]2C [Compound 18] ?
Output line: 505

***
Input line: What ex/em: excitation value was documented for this molecule, COc1cccc(OC)c1-c1ccc2c(c1)sc(C=C1C=CN(Cc3cc[n+](C)cc3)c3ccccc31)[n+]2C [Compound 56] ?
Output line: 515

Input line: What ex/em: excitation value was documented for this molecule, COC1=CC(=Cc2sc3cc(-c4c(OC)cccc4OC)ccc3[n+]2C)c2ccccc2N1Cc1ccccc1 [Compound 32] ?
Output line: 498

Input line: What ex/em: excitation value was documented for this molecule, CCCN(CCC[N+](C)(C)C)C1=CC(=Cc2sc3cc(-c4c(OC)cccc4OC)ccc3[n+]2C)c2ccccc2N1Cc1ccccc1 [Compound 31] ?
Output line: 505

Input line: What ex/em: excitation value was documented for this molecule, C[n+]1c(C=CC=C2C=CN(Cc3ccccc3)c3ccccc32)sc2cc(-c3ccccc3)ccc21 [Compound 103] ?
Output line: 507

* * *

Reported values of ex/em: excitation for individual entries
# Test system: calf thymus double stranded DNA and ribosomal RNA
# assay.method.text: Determination of DNA/RNA fluorescence ratios
# Assay type: binding
# condition.description: excitation value, first number of ex/em cell

The following compounds have reported results that may help.
Input line: What ex/em: excitation value was documented for this compound, COc1cccc(OC)c1-c1ccc2c(c1)sc(C=C1C=C(n3ccnc3)N(Cc3ccccc3)c3ccccc31)[n+]2C [Compound 19] ?
Output line: 525 nm

Input line: What ex/em: excitation value was documented for this compound, COc1cccc(OC)c1-c1ccc2c(c1)sc(C=C1C=CN(Cc3ccccc3)c3ccccc31)[n+]2C [Compound 53] ?
Output line: 510 nm

Input line: What ex/em: excitation value was documented for this compound, CNCCCN(C)C1=CC(=Cc2sc3cc(-c4c(OC)cccc4OC)ccc3[n+]2C)c2ccccc2N1Cc1ccccc1 [Compound 23] ?
Output line: 500 nm

***
Input line: What ex/em: excitation value was documented for this compound, C[n+]1c(C=C2C=CN(Cc3ccccc3)c3ccccc32)sc2cc(-c3ccccc3)ccc21 [Compound 92] ?
Output line: 458 nm

Input line: What ex/em: excitation value was documented for this compound, COc1cccc(OC)c1-c1ccc2c(c1)sc(C=C1C=C(SCCN(C)C)N(Cc3ccccc3)c3ccccc31)[n+]2C [Compound 24] ?
Output line: 520 nm

Input line: What ex/em: excitation value was documented for this compound, C[n+]1c(C=C2C=CN(Cc3ccccc3)c3ccccc32)sc2cc(-c3ccc(O)cc3)ccc21 [Compound 100] ?
Output line: 513 nm

Input line: What ex/em: excitation value was documented for this compound, CCCCn1cc(N2C(N(CCC)CCCN(C)C)=CC(=Cc3sc4cc(-c5c(OC)cccc5OC)ccc4[n+]3C)c3ccccc32)nn1 [Compound 57] ?
Output line: 506 nm

* * *

# System: calf thymus double stranded DNA and ribosomal RNA
# assay.method.text: Determination of DNA/RNA fluorescence ratios
# Assay type: binding
# condition.description: emission value, second number of ex/em cell
Reported values of ex/em: emission for individual entries
Give the value, in units of nm, as a plain number.

The following molecules have reported results that may help.
Input line: What ex/em: emission value was documented for this molecule, COc1cccc(OC)c1-c1ccc2c(c1)sc(C=C1C=CN(Cc3cc[n+](C)cc3)c3ccccc31)[n+]2C ?
Output line: 545

Input line: What ex/em: emission value was documented for this molecule, COc1cccc(OC)c1-c1ccc2c(c1)sc(C=C1C=C(SCCN(C)C)N(Cc3ccccc3)c3ccccc31)[n+]2C ?
Output line: 570

Input line: What ex/em: emission value was documented for this molecule, C[n+]1c(C=C2C=CN(Cc3ccccc3)c3ccccc32)sc2cc(-c3ccccc3)ccc21 ?
Output line: 501

Input line: What ex/em: emission value was documented for this molecule, COc1cccc(OC)c1-c1ccc2c(c1)sc(C=C1C=C(N(C)CCN(C)C)N(Cc3ccccc3)c3ccccc31)[n+]2C ?
Output line: 533

***
Input line: What ex/em: emission value was documented for this molecule, CCCN(CCC[N+](C)(C)C)C1=CC(=Cc2sc3cc(-c4c(OC)cccc4OC)ccc3[n+]2C)c2ccccc2N1Cc1ccccc1 ?
Output line: 534

Input line: What ex/em: emission value was documented for this molecule, C[n+]1c(C=C2C=CN(Cc3ccccc3)c3ccccc32)sc2cc(-c3cccs3)ccc21 ?
Output line: 555

Input line: What ex/em: emission value was documented for this molecule, COc1cccc(OC)c1-c1ccc2c(c1)sc(C=C1C=CN(Cc3ccccc3)c3ccccc31)[n+]2C ?
Output line: 540

* * *

Reported values of ex/em: excitation for individual entries
# System: calf thymus double stranded DNA and ribosomal RNA
# assay.method.text: Determination of DNA/RNA fluorescence ratios
# Type: binding
# condition.description: excitation value, first number of ex/em cell
Give the value, in units of nm, as a plain number.

Input line: What ex/em: excitation value was documented for this compound, CCOC(=O)CCCOc1cccc(CN2C=CC(=CC=Cc3sc4cc(-c5ccccc5)ccc4[n+]3C)c3ccccc32)c1 ?
Output line: 652

Input line: What ex/em: excitation value was documented for this compound, COc1cccc(OC)c1-c1ccc2c(c1)sc(C=C1C=CN(Cc3ccc(CN(C)CCCN(C)C)cc3)c3ccccc31)[n+]2C ?
Output line: 512

Input line: What ex/em: excitation value was documented for this compound, CCCN(CCCN(C)C)C1=CC(=Cc2sc3cc(-c4c(OC)cccc4OC)ccc3[n+]2C)c2ccc(OC)cc2N1Cc1ccccc1 ?
Output line: 497

Input line: What ex/em: excitation value was documented for this compound, COc1cccc(OC)c1-c1ccc2c(c1)sc(C=C1C=CN(Cc3ccc(C[N+](C)(C)CCCN(C)C)cc3)c3ccccc31)[n+]2C ?
Output line: 512

Input line: What ex/em: excitation value was documented for this compound, COc1cccc(OC)c1-c1ccc2c(c1)sc(C=C1C=CN(Cc3ccc(C[N+](C)(C)C)cc3)c3ccccc31)[n+]2C ?
Output line: 513

Consider now this further compound.
Input line: What ex/em: excitation value was documented for this compound, CCN(CC)Cc1ccc(C2=CC(=Cc3sc4cc(-c5c(OC)cccc5OC)ccc4[n+]3C)c3ccccc3N2Cc2ccccc2)cc1 ?
Output line: 518

* * *

Reported values of ex/em: emission for individual entries
# Test system: calf thymus double stranded DNA and ribosomal RNA
# assay.method.text: Determination of DNA/RNA fluorescence ratios
# Format: binding
# condition.description: emission value, second number of ex/em cell
Give the value, in units of nm, as a plain number.

Input line: What ex/em: emission value was documented for this compound, COc1cccc(OC)c1-c1ccc2c(c1)sc(C=C1C=CN(Cc3ccc(CN4CCN(C)CC4)cc3)c3ccccc31)[n+]2C [Compound 44] ?
Output line: 540

Input line: What ex/em: emission value was documented for this compound, CCCN(CCCN(C)C)C1=CC(=Cc2sc3cc(-c4c(OC)cccc4OC)ccc3[n+]2C)c2ccccc2N1c1ccccc1 [Compound 28] ?
Output line: 527

Input line: What ex/em: emission value was documented for this compound, CCCN(CCCN(C)C)C1=CC(=Cc2sc3cc(-c4c(OC)cccc4OC)ccc3[n+]2C)c2ccccc2N1Cc1ccccc1 [Compound 16] ?
Output line: 532

Input line: What ex/em: emission value was documented for this compound, COc1cccc(OC)c1-c1ccc2c(c1)sc(C=C1C=CN(Cc3ccc(C[N+](C)(C)CCCN(C)C)cc3)c3ccccc31)[n+]2C [Compound 46] ?
Output line: 542

Input line: What ex/em: emission value was documented for this compound, COc1cccc(OC)c1-c1ccc2c(c1)sc(C=C1C=CN(Cc3ccccc3)C(SCCCN(C)C)=C1)[n+]2C [Compound 102] ?
Output line: 515

Input line: What ex/em: emission value was documented for this compound, COc1cccc(OC)c1-c1ccc2c(c1)sc(C=C1C=CN(Cc3ccncc3)c3ccccc31)[n+]2C [Compound 55] ?
Output line: 541

Consider now this further compound.
Input line: What ex/em: emission value was documented for this compound, C[n+]1c(C=C2C=CN(Cc3ccccc3)c3ccccc32)sc2cc(-c3cccnc3)ccc21 [Compound 97] ?
Output line: 538
